Exercise: for every item that follows, state its recorded 8OG:A repair function score.
B1: library; numbered along this chain (parent)
chain: MRKPRAAVGSGHRKQAASQEGRQKHAKNNSQAKPSACDGLARQPEEVVLQASVSSYHLFRDVAEVTAFRGSLLSWYDQEKRDLPWRRRAEDEMDLDRRAYAVWVSEVMLQQTQVATVINYYTGWMQKWPTLQDLASASLEEVNQLWAGLGYYSRGRRLQEGARKVVEELGGHMPRTAETLQQLLPGVGRYTAGAIASIAFGQATGVVDGNVARVLCRVRAIGADPSSTLVSQQLWGLAQQLVDPARPGDFNQAAMELGATVCTPQRPLCSQCPVESLCRARQRVEQEQLLASGSLSGSPDVEECAPNTGQCHLCLPPSEPWDQTLGVVNFPRKASRKPPREESSATCVLEQPGALGAQILLVQRPNSGLLAGLWEFPSVTWEPSEQLQRKALLQELQRWAGPLPATHLRHLGEVVHTFSHIKLTYQVYGLALEGQTPVTTVPPGARWLTQEEFHTAAVSTAMKKVFRVYQGQQPGTCMGSKRSQVSSPCSRKKPRMGQQVLDNFFRSHISTDAHSLNSAAQ

- Variants of: B1
- test: 8OG:A repair function score (normalized; synonymous = 0, nonsense = -1) (normalized log-likelihood score); higher = more repair activity (WT-like);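 note: cells sorted at 72 h after reporter transfection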
- conditions: with 8OG:A DNA repair reporter (GFP) in HEK-293 MUTYH KO cells
Answers are plain numbers.

Known 8OG:A repair function score results, listed for orientation:
{"mutant": "T191C", "endpoint label": "8OG:A repair function score", "result": -0.351}
{"mutant": "V102S", "endpoint label": "8OG:A repair function score", "result": -0.376}
{"mutant": "Y190N", "endpoint label": "8OG:A repair function score", "result": -0.443}
{"mutant": "V301C", "endpoint label": "8OG:A repair function score", "result": -0.217}
{"mutant": "C278I", "endpoint label": "8OG:A repair function score", "result": -1.03}

// switching to the query variant
Prompt: Kindly indicate its recorded 8OG:A repair function score. Item: `V65G`
Response: -0.206
